System: Rattus norvegicus
assay method text: Area under curve (AUC) at a dose 1 mg/kg was determined in rat lung
Assay type: ADME, organism-based
Design: dose 1 mg/kg
recorded conditions: in vivo
measurement kind: AUC (mg·h/kg)

// worked examples, AUC included
# mol, measurement units, AUC
measured = [
    ("NC[C@@H]1CN[C@@H](C(=O)N[C@H](CCc2ccccc2)C(=O)Nc2ccc3ncccc3c2)C1", "mg·h/kg", 15),
    ("NCC(=O)N1C[C@@H](N)C[C@@H]1C(=O)N[C@H](CCc1ccccc1)C(=O)Nc1cnc2ccccc2c1", "mg·h/kg", 3),
]

[1] NCC(=O)N1C[C@@H](CN)C[C@@H]1C(=O)N[C@H](CCc1ccccc1)C(=O)Nc1ccc2ncccc2c1
[2] N[C@@H]1CN[C@@H](C(=O)N[C@H](CCc2ccccc2)C(=O)Nc2cnc3ccccc3c2)C1
stdin: Lower value of AUC belongs to which: 1 or 2 ? Return value: the label identifying the chosen record.
stdout: 1
(1: 4 mg·h/kg, 2: 14 mg·h/kg)

----------
assay method text: Ionization constant (pKa2) of compound was determined
Assay type: physicochemical
recorded conditions: read-out: pKa2
measurement kind: pKa

# compound, pKa
data = [
    ("N[C@@H]1CN[C@@H](C(=O)N[C@H](CCc2ccccc2)C(=O)Nc2cnc3ccccc3c2)C1", 5.2),
    ("N[C@@H]1CN[C@@H](CC(=O)N[C@H](CCc2ccccc2)C(=O)Nc2cnc3ccccc3c2)C1", 6.3),
    ("NCC(=O)N1C[C@@H](N)C[C@@H]1C(=O)N[C@H](CCc1ccccc1)C(=O)Nc1cnc2ccccc2c1", 7.1),
    ("NCC(=O)N1CCNC(C(=O)N[C@H](CCc2ccccc2)C(=O)Nc2cnc3ccccc3c2)C1 (some centres undefined)", 5.4),
    ("NC[C@@H]1CN[C@@H](C(=O)N[C@H](CCc2ccccc2)C(=O)Nc2cnc3ccccc3c2)C1", 6.8),
    ("NCC(=O)N1C[C@@H](N)C[C@@H]1C(=O)N[C@H](CCc1ccccc1)C(=O)Nc1ccc2ncccc2c1", 7.2),
    ("NCC(=O)N1CCNCC1C(=O)N[C@H](CCc1ccccc1)C(=O)Nc1cnc2ccccc2c1 (some centres undefined)", 6.3),
    ("NCC(=O)N1C[C@@H](CN)C[C@@H]1C(=O)N[C@H](CCc1ccccc1)C(=O)Nc1ccc2ncccc2c1", 7.7),
    ("NC[C@@H]1CN[C@@H](C(=O)N[C@H](CCc2ccccc2)C(=O)Nc2ccc3ncccc3c2)C1", 6.9),
]

----------
assay method text: Partition coefficient (logD)
Type: physicochemical
recorded conditions: octanol/water
measurement kind: logD

// worked examples, logD included
# mol, measured
rows = [
    ("NCC(=O)N1C[C@@H](N)C[C@@H]1C(=O)N[C@H](CCc1ccccc1)C(=O)Nc1cnc2ccccc2c1", 0.9),
    ("NC[C@@H]1CN[C@@H](C(=O)N[C@H](CCc2ccccc2)C(=O)Nc2ccc3ncccc3c2)C1", 0.5),
]

[I] Cc1cc2nc([C@@H](CCc3ccccc3)NC(=O)[C@H]3C[C@H](N)CN3C(=O)CN)[nH]c2cc1C
[II] N[C@@H]1CN[C@@H](C(=O)N[C@H](CCc2ccccc2)C(=O)Nc2cnc3ccccc3c2)C1
[III] NCC(=O)N1C[C@@H](CN)C[C@@H]1C(=O)N[C@H](CCc1ccccc1)C(=O)Nc1ccc2ncccc2c1
[IV] NCC(=O)N1C[C@@H](N)C[C@@H]1C(=O)N[C@H](CCc1ccccc1)C(=O)Nc1ccc2ncccc2c1
stdin: Please give the order of these compounds when sorted by logD, largest value leading. Put the labels in the requested order and write them down.
stdout: I, II, IV, III
